- ASSAY_TARGET: T1, full-length recombinant mouse PAD4 (mouse, UniProt Q9Z183 1-666)
- T1 construct: mature; Full-length recombinant
- T1 sequence (Q9Z183 whole entry): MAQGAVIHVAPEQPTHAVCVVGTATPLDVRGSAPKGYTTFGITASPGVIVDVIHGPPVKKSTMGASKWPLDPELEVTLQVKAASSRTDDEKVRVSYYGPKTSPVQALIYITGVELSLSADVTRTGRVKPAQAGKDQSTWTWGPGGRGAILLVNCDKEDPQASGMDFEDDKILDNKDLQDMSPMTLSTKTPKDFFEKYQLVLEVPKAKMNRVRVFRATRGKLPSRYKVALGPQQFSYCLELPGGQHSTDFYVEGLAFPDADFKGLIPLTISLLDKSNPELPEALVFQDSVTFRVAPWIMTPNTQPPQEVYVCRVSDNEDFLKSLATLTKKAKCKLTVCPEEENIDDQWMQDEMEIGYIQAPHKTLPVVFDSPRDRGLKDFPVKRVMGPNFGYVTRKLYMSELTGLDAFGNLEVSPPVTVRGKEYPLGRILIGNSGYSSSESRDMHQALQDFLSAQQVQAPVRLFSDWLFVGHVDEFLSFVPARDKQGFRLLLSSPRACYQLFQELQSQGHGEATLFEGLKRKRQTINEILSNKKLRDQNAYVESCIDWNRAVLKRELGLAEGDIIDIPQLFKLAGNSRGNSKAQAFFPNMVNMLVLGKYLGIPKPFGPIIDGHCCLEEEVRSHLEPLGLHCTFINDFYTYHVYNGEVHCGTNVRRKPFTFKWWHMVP
- ASSAY: ELISA, coated mouse PAD4; antibody 0.015625 ug/mL
Cut-off 2 on OD 490/630 nm, inclusive. At or above means label 1; below means label 0.

Worked cases, answers included:
Exam item: Check this binder for OD 490/630 nm at or above 2: G8 (antibody, V domains shown, Chicken variable regions in a mouse chimeric antibody (IgG1); also called anti-PAD4 antibody G8) VH: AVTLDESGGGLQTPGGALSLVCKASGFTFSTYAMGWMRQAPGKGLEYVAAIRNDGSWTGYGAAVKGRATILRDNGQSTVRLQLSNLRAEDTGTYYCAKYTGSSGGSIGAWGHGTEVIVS VL: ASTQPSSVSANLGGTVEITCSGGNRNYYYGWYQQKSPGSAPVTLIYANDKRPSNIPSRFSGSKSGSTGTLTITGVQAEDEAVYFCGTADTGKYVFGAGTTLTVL
Marked response: label 1

Exam item: Follow-up item: G6 (antibody, V domains shown, Chicken variable regions in a mouse chimeric antibody (IgG1); also called anti-PAD4 antibody G6) VH: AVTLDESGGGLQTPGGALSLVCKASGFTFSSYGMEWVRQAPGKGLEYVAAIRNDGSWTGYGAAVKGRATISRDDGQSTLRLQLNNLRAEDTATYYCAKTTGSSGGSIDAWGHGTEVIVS VL: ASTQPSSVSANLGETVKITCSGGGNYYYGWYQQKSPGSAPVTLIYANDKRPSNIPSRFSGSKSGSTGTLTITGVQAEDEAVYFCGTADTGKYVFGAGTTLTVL
Marked response: label 0

Exam item: Follow-up item: H7 (antibody, V domains shown, Chicken variable regions in a mouse chimeric antibody (IgG1); also called anti-PAD4 antibody H7) VH: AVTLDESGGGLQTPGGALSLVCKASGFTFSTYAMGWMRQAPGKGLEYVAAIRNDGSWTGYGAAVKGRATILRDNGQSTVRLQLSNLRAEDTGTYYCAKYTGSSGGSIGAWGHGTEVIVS VL: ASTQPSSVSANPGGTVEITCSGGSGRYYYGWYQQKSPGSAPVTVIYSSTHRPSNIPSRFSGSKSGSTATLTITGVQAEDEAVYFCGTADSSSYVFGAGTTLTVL
Marked response: label 1

Next:
Exam item: Check this binder for OD 490/630 nm at or above 2: E9 (antibody, V domains shown, Chicken variable regions in a mouse chimeric antibody (IgG1); also called anti-PAD4 antibody E9) VH: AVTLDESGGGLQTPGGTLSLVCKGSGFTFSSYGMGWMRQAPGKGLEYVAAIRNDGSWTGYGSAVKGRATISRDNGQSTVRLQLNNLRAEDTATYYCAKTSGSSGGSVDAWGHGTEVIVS VL: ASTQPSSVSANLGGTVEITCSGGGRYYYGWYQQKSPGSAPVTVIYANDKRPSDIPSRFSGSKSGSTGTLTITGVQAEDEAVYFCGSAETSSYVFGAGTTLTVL
Marked response: label 0

Exam item: Follow-up item: G9 (antibody, V domains shown, Chicken variable regions in a mouse chimeric antibody (IgG1); also called anti-PAD4 antibody G9) VH: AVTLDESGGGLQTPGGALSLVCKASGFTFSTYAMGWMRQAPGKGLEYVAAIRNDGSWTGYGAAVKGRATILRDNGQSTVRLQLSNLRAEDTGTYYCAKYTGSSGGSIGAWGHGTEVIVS VL: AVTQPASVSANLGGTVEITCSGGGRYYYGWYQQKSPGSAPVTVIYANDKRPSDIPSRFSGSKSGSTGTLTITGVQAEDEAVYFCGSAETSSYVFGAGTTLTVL
Marked response: label 1
